Tested on: NCI-H596
Test: relative viability (nuclei count vs DMSO), 5 days (fraction); higher = more cells survive
Assay conditions: first compound 0.8 µM
Recorded relative viability for the following molecules
Simply state the number, no unit and no words.

Example molecules with recorded relative viability:
# Molecule, Numeric readout
rows = [
    ("CCCCCCCCCCCC1=C(O)C(=O)C=C(O)C1=O [Embelin] + COc1cccc2cc(-c3nc([C@H]4CC[C@H](C(=O)O)CC4)n4ncnc(N)c34)[nH]c12 [OSI-027] (partner 0.5 µM)", 0.854),
    ("CCCCCCCCCCCC1=C(O)C(=O)C=C(O)C1=O [Embelin] + CS(=O)(=O)N1CCN(Cc2cc3nc(-c4cccc5[nH]ncc45)nc(N4CCOCC4)c3s2)CC1 [Pictilisib] (partner 1 µM)", 0.432),
    ("CCCCCCCCCCCC1=C(O)C(=O)C=C(O)C1=O [Embelin] + CS(=O)(=O)CCNCc1ccc(-c2ccc3ncnc(Nc4ccc(OCc5cccc(F)c5)c(Cl)c4)c3c2)o1 [Lapatinib] (partner 2 µM)", 1.07),
    ("CCCCCCCCCCCC1=C(O)C(=O)C=C(O)C1=O [Embelin] + Cc1nc(Nc2ncc(C(=O)Nc3c(C)cccc3Cl)s2)cc(N2CCN(CCO)CC2)n1 [Dasatinib] (partner 0.075 µM)", 0.739),
]

Log: NCI-H596, molecule CCCCCCCCCCCC1=C(O)C(=O)C=C(O)C1=O [Embelin] + O=C(CCCCCCC(=O)Nc1ccccc1)NO [Vorinostat] (partner 1 µM) , relative viability = 0.73

---

Test system: NCI-H1734
Test: relative viability (nuclei count vs DMSO), 5 days (fraction); higher = more cells survive
Assay conditions: first compound 0.8 µM
Recorded relative viability for the following molecules
Simply state the number, no unit and no words.

Example molecules with recorded relative viability:
# Molecule, Observable, Numeric readout
data = [
    ("CCCCCCCCCCCC1=C(O)C(=O)C=C(O)C1=O [Embelin] + Nc1nc2[nH]cc(CCc3ccc(C(=O)N[C@@H](CCC(=O)O)C(=O)O)cc3)c2c(=O)[nH]1 [Pemetrexed] (partner 0.2 µM)", "relative viability", 0.447),
    ("CCCCCCCCCCCC1=C(O)C(=O)C=C(O)C1=O [Embelin] + Cc1nc(NC(=O)N2CCC[C@H]2C(N)=O)sc1-c1ccnc(C(C)(C)C(F)(F)F)c1 [Alpelisib] (partner 2 µM)", "relative viability", 0.726),
    ("CCCCCCCCCCCC1=C(O)C(=O)C=C(O)C1=O [Embelin] + C[C@]1(O)C[C@@H](c2nc(-c3ccc4ccc(-c5ccccc5)nc4c3)c3c(N)nccn32)C1 [Linsitinib] (partner 1 µM)", "relative viability", 1.05),
]

// moving on: another record for relative viability
Log: NCI-H1734, molecule CCCCCCCCCCCC1=C(O)C(=O)C=C(O)C1=O [Embelin] + O=C(CCCCCCC(=O)Nc1ccccc1)NO [Vorinostat] (partner 1 µM) , relative viability = 0.968

---

Recorded relative viability for the following compounds
Test system: NCI-H1651
Test: relative viability (nuclei count vs DMSO), 5 days (fraction); higher = more cells survive
Assay conditions: first compound 8 µM
Simply state the number, no unit and no words.

Example compounds with recorded relative viability:
# Compound, relative viability
records = [
    ("CCCCCCCCCCCC1=C(O)C(=O)C=C(O)C1=O [Embelin] + CC(C)C[C@H](NC(=O)[C@H](Cc1ccccc1)NC(=O)c1cnccn1)B(O)O [Bortezomib] (partner 0.002 µM)", 1.02),
    ("CCCCCCCCCCCC1=C(O)C(=O)C=C(O)C1=O [Embelin] + COc1cccc2cc(-c3nc([C@H]4CC[C@H](C(=O)O)CC4)n4ncnc(N)c34)[nH]c12 [OSI-027] (partner 0.5 µM)", 0.776),
    ("CCCCCCCCCCCC1=C(O)C(=O)C=C(O)C1=O [Embelin] + CC(=O)Nc1cccc(-n2c(=O)n(C3CC3)c(=O)c3c(Nc4ccc(I)cc4F)n(C)c(=O)c(C)c32)c1 [Trametinib] (partner 0.02 µM)", 0.83),
]

Reported relative viability for CCCCCCCCCCCC1=C(O)C(=O)C=C(O)C1=O [Embelin] + CC1(C)CCC(c2ccc(Cl)cc2)=C(CN2CCN(c3ccc(C(=O)NS(=O)(=O)c4ccc(N[C@H](CCN5CCOCC5)CSc5ccccc5)c(S(=O)(=O)C(F)(F)F)c4)cc3)CC2)C1 [Navitoclax] (partner 0.5 µM) was 1.09

---

Tested on: LCLC-97TM1
Test: relative viability (nuclei count vs DMSO), 5 days (fraction); higher = more cells survive
Assay conditions: first compound 0.4 µM
Recorded relative viability for the following compounds
Simply state the number, no unit and no words.

Example compounds with recorded relative viability:
# Compound, relative viability
measured = [
    ("C[C@@H]1CN(CC(=O)Nc2ccc3c(c2)Cc2cccc(-c4cc(=O)cc(N5CCOCC5)o4)c2S3)C[C@H](C)O1 + CC(=O)Nc1cccc(-n2c(=O)n(C3CC3)c(=O)c3c(Nc4ccc(I)cc4F)n(C)c(=O)c(C)c32)c1 [Trametinib] (partner 0.02 µM)", 0.165),
    ("COc1cc(N2CCC(C(N)=O)CC2)ccc1Nc1nc(N)c(Cl)c(Nc2ccccc2S(=O)(=O)C(C)C)n1 [HG-5-88-01] + Cc1nc(NC(=O)N2CCC[C@H]2C(N)=O)sc1-c1ccnc(C(C)(C)C(F)(F)F)c1 [Alpelisib] (partner 2 µM)", 0.198),
    ("C[C@@H]1CN(CC(=O)Nc2ccc3c(c2)Cc2cccc(-c4cc(=O)cc(N5CCOCC5)o4)c2S3)C[C@H](C)O1 + CC1(C)CCC(c2ccc(Cl)cc2)=C(CN2CCN(c3ccc(C(=O)NS(=O)(=O)c4ccc(N[C@H](CCN5CCOCC5)CSc5ccccc5)c(S(=O)(=O)C(F)(F)F)c4)cc3)CC2)C1 [Navitoclax] (partner 0.5 µM)", 0.279),
]

// moving on: another record for relative viability
Log: LCLC-97TM1, compound C[C@@H]1CN(CC(=O)Nc2ccc3c(c2)Cc2cccc(-c4cc(=O)cc(N5CCOCC5)o4)c2S3)C[C@H](C)O1 + N=C(N)NC(=N)NCCc1ccccc1 [Phenformin] (partner 250 µM) , relative viability = 0.433

---

System: NCI-H647
Test: relative viability (nuclei count vs DMSO), 5 days (fraction); higher = more cells survive
Assay conditions: first compound 0.1265 µM
Observable: relative viability
Simply state the number, no unit and no words.

Example compounds with recorded relative viability:
# Compound, relative viability
rows = [
    ("Clc1ccc(Nc2nnc(Cc3ccncc3)c3ccccc23)cc1 [Vatalanib] + Cc1cc(Nc2cc(N3CCN(C)CC3)nc(Sc3ccc(NC(=O)C4CC4)cc3)n2)n[nH]1 [Tozasertib] (partner 0.1 µM)", 0.262),
    ("COc1cc(N2CCC(C(N)=O)CC2)ccc1Nc1nc(N)c(Cl)c(Nc2ccccc2S(=O)(=O)C(C)C)n1 [HG-5-88-01] + CS(=O)(=O)CCNCc1ccc(-c2ccc3ncnc(Nc4ccc(OCc5cccc(F)c5)c(Cl)c4)c3c2)o1 [Lapatinib] (partner 2 µM)", 1.23),
    ("COc1cc(N2CCC(C(N)=O)CC2)ccc1Nc1nc(N)c(Cl)c(Nc2ccccc2S(=O)(=O)C(C)C)n1 [HG-5-88-01] + C[C@@H](Oc1cc(-c2cnn(C3CCNCC3)c2)cnc1N)c1c(Cl)ccc(F)c1Cl [Crizotinib] (partner 1 µM)", 0.992),
]

Reported relative viability for C[C@@H]1CN(CC(=O)Nc2ccc3c(c2)Cc2cccc(-c4cc(=O)cc(N5CCOCC5)o4)c2S3)C[C@H](C)O1 + CC(=O)Nc1cccc(-n2c(=O)n(C3CC3)c(=O)c3c(Nc4ccc(I)cc4F)n(C)c(=O)c(C)c32)c1 [Trametinib] (partner 0.02 µM) was 0.415

Reported relative viability for C[C@@H]1CN(CC(=O)Nc2ccc3c(c2)Cc2cccc(-c4cc(=O)cc(N5CCOCC5)o4)c2S3)C[C@H](C)O1 + Nc1ncn([C@H]2C[C@H](O)[C@@H](CO)O2)c(=O)n1 [Decitabine] (partner 2 µM) was 0.376

Reported relative viability for Clc1ccc(Nc2nnc(Cc3ccncc3)c3ccccc23)cc1 [Vatalanib] + C[C@@H](Oc1cc(-c2cnn(C3CCNCC3)c2)cnc1N)c1c(Cl)ccc(F)c1Cl [Crizotinib] (partner 1 µM) was 1.07

---

Recorded relative viability for the following molecules
Test system: NCI-H1437
Test: relative viability (nuclei count vs DMSO), 5 days (fraction); higher = more cells survive
Assay conditions: first compound 0.1265 µM
Simply state the number, no unit and no words.

Example molecules with recorded relative viability:
# Molecule, Target system, Numeric readout
measured = [
    ("COc1cc(N2CCC(C(N)=O)CC2)ccc1Nc1nc(N)c(Cl)c(Nc2ccccc2S(=O)(=O)C(C)C)n1 [HG-5-88-01] + NC(=O)Nc1cc(-c2cccc(F)c2)sc1C(=O)N[C@H]1CCCNC1 [AZD7762] (partner 0.2 µM)", "NCI-H1437", 1.13),
    ("Clc1ccc(Nc2nnc(Cc3ccncc3)c3ccccc23)cc1 [Vatalanib] + CC(=O)c1c(C)c2cnc(Nc3ccc(N4CCNCC4)cn3)nc2n(C2CCCC2)c1=O [Palbociclib] (partner 0.5 µM)", "NCI-H1437", 0.318),
    ("Clc1ccc(Nc2nnc(Cc3ccncc3)c3ccccc23)cc1 [Vatalanib] + CC(=O)Nc1cccc(-n2c(=O)n(C3CC3)c(=O)c3c(Nc4ccc(I)cc4F)n(C)c(=O)c(C)c32)c1 [Trametinib] (partner 0.02 µM)", "NCI-H1437", 0.499),
]

// moving on: another record for relative viability
Reported relative viability for COc1cc(N2CCC(C(N)=O)CC2)ccc1Nc1nc(N)c(Cl)c(Nc2ccccc2S(=O)(=O)C(C)C)n1 [HG-5-88-01] + CC1(C)CCC(c2ccc(Cl)cc2)=C(CN2CCN(c3ccc(C(=O)NS(=O)(=O)c4ccc(N[C@H](CCN5CCOCC5)CSc5ccccc5)c(S(=O)(=O)C(F)(F)F)c4)cc3)CC2)C1 [Navitoclax] (partner 0.5 µM) was 1.11
